For UniProt:P07374, measured Ki is reported for the entries below.
Sequence (P07374 whole entry, looked up): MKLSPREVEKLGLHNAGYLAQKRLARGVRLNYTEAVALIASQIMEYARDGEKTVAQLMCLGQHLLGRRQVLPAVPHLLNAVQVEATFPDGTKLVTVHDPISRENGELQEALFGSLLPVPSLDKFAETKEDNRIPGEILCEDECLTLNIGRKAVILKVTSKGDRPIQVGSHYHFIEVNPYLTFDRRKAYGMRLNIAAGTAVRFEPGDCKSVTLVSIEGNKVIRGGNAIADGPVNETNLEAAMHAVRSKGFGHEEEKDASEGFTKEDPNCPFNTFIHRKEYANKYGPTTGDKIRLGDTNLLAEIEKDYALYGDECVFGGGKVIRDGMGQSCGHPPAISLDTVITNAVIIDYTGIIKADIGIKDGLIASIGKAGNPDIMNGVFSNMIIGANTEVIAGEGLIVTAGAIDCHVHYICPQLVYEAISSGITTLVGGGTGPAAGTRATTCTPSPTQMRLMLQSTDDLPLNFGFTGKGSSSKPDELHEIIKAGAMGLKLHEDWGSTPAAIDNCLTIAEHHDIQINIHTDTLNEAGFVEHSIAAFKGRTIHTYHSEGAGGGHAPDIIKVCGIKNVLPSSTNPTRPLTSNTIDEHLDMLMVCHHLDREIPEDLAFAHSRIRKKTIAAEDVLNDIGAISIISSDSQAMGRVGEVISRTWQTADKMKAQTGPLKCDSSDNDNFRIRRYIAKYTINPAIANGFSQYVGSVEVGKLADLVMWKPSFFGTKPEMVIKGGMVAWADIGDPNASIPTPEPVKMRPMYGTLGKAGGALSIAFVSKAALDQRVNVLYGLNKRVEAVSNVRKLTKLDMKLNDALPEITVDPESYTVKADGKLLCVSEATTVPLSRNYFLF
result_type: Ki (µM)

{"columns": ["compound_structure", "observed"],
 "data": [
  ["CC(c1c(O)c2ccccc2oc1=O)c1c(O)c2ccccc2oc1=O", 59.4],
  ["O=c1oc2ccccc2c(O)c1C(/C=C/c1ccccc1)c1c(O)c2ccccc2oc1=O", 21.5],
  ["O=c1oc2ccccc2c(O)c1C(c1cccnc1)c1c(O)c2ccccc2oc1=O", 68],
  ["C/C=C/C(c1c(O)c2ccccc2oc1=O)c1c(O)c2ccccc2oc1=O", 65.9],
  ["COc1cccc(C(c2c(O)c3ccccc3oc2=O)c2c(O)c3ccccc3oc2=O)c1", 19.3],
  ["O=c1oc2ccccc2c(O)c1C(c1c(O)c2ccccc2oc1=O)c1c[nH]c2ccccc12", 62.9],
  ["O=c1oc2ccccc2c(O)c1C(c1cc[nH]c1)c1c(O)c2ccccc2oc1=O", 53.3],
  ["O=c1oc2ccccc2c(O)c1Cc1c(O)c2ccccc2oc1=O", 15],
  ["O=c1oc2ccccc2c(O)c1C(c1ccncc1)c1c(O)c2ccccc2oc1=O", 71],
  ["CCCCC(c1c(O)c2ccccc2oc1=O)c1c(O)c2ccccc2oc1=O", 75]
]}

Taken from paper PMC4176650.
